The following variants are listed with their measured protein stability index values.
B1: TBX6 (parent)
chain: AFLELPHGSGGSGYPAAPPAVPFA

Variants of: B1
Test: protein stability index of a GFP-peptide fusion (GPS, HEK-293T) (PSI 1-6); higher = more stable;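 further: lentivirally expressed fusions sorted by FACS into six bins by GFP to DsRed ratio, PSI derived from sequencing read proportions per bin multiplied by bin number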
Experimental conditions: c terminus: a fixed tail appended
Measured endpoint: protein stability index

In [3]: df
Out[3]:
                     sequence_chain  measured_result
 0  AFLELPHGSGGSGSPAAPPAVPFA [Y14S]             3.25
 1  AFLELPHGSGGSGVPAAPPAVPFA [Y14V]             2.73
 2  AFLELPHGSGGSGYPAAPPAVPFN [A24N]             2.68
 3  AFLELPHGSGGSGYAAAPPAVPFA [P15A]             2.27
 4  AFLELPHGSGGSGYPAAPPAVVFA [P22V]             2.16
 5  AFLELPHGSGGSGYPAYPPAVPFA [A17Y]             2.36
 6  AFLELPHGSGGSGYPAAPPAVPAA [F23A]             3.48
 7  AFLELPHGSGSSGYPAAPPAVPFA [G11S]              2.7
 8  AFLELPHGSGGSGYPAAPFAVPFA [P19F]             1.59
 9  AFLELPHGSGGSGYPAAPPAVPFV [A24V]             2.47
10  AFLELPHGSGGSGYPAAPPAVPIA [F23I]             2.52
11  AFLELPHGSGGSFYPAAPPAVPFA [G13F]             2.21
12  AFLELPHGSGGSGYPAAPPAKPFA [V21K]             3.23
13  AFLELPHGSGGSGYPAAPPAWPFA [V21W]             2.07
14  AFLELPHGSGGSGYPAAEPAVPFA [P18E]             3.32
15  AFLELPHGSGGSGYPQAPPAVPFA [A16Q]             2.77
16  AFLELPHGSGGSGYPAAPPSVPFA [A20S]             2.52
17  AFLELPHGSGGSGYPAAPPAVIFA [P22I]             1.73
18  AFLELPHGSGGSGYPAAPPAVPLA [F23L]             2.35
19  AFLELPHGSGGSGYPAAPPAVQFA [P22Q]             2.52
20  AFLELPHGSGGSGYCAAPPAVPFA [P15C]              1.8
21  AFLELPHGSGGSGYPAAPPAVPFD [A24D]             3.33
22  AFLELPHGSGGSGYPAAPPAVPFR [A24R]             2.54
23  AFLELPHGSGGNGYPAAPPAVPFA [S12N]             2.62
24  AFLELPHGSGGSGYPAAPPEVPFA [A20E]             2.87
25  AFLELPHGSGGSGYPAAPPAVPNA [F23N]             3.76
26  AFLELPHGSGGSGYIAAPPAVPFA [P15I]             2.01
27  AFLELPHGSGGSGYRAAPPAVPFA [P15R]             1.88
28  AFLELPHGSGGSGYPAAPPAVPCA [F23C]             3.36
29  AFLELPHGSGGHGYPAAPPAVPFA [S12H]             2.22
30  AFLELPHGSGGSGYPAALPAVPFA [P18L]             2.44
31  AFLELPHGSGGSGYPAAPPAVPFW [A24W]             1.67
32  AFLELPHGSGGSGYPAAPPAVRFA [P22R]              2.3
33  AFLELPHGSGGSGYGAAPPAVPFA [P15G]             2.21
34  AFLELPHGSGGSGYPAAPHAVPFA [P19H]             2.23
35  AFLELPHGSGGSGYPAAPPAVPFT [A24T]             2.55
36  AFLELPHGSGGSGYPAAPPYVPFA [A20Y]             2.03
37  AFLELPHGSGGSGYPAAMPAVPFA [P18M]             2.56
38  AFLELPHGSGGSGYPAAPPAVYFA [P22Y]             2.02
39  AFLELPHGSGGSGYPAANPAVPFA [P18N]             2.19
40  AFLELPHGSGGSGYPAAYPAVPFA [P18Y]             2.06
41  AFLELPHGSGGSGYPAAPQAVPFA [P19Q]             2.47
42  AFLELPHGSGGSGYPAAPPAVPFY [A24Y]             1.89
43  AFLELPHGSGGSGYPAAPPAVPGA [F23G]             3.72
44  AFLELPHGSGGSGCPAAPPAVPFA [Y14C]             2.99
45  AFLELPHGSGGSGYPAAPNAVPFA [P19N]             2.06
46  AFLELPHGSGKSGYPAAPPAVPFA [G11K]             2.07
47  AFLELPHGSGGSGYPRAPPAVPFA [A16R]             2.29
48  AFLELPHGSGGVGYPAAPPAVPFA [S12V]             2.55
49  AFLELPHGSGGSGYPARPPAVPFA [A17R]             2.37
50  AFLELPHGSGGSNYPAAPPAVPFA [G13N]              2.4
51  AFLELPHGSGGSGYPAVPPAVPFA [A17V]             2.62
52  AFLELPHGSGGSGYPAAPPAVPDA [F23D]             4.19
53  AFLELPHGSGGSGYPAAPDAVPFA [P19D]             2.56
54  AFLELPHGSGGSGYPAAPPAVCFA [P22C]              2.1
55  AFLELPHGSGGSGAPAAPPAVPFA [Y14A]              3.1
56  AFLELPHGSGGSGYPAAPPMVPFA [A20M]             2.35
57  AFLELPHGSGGSWYPAAPPAVPFA [G13W]             1.73
58  AFLELPHGSGGGGYPAAPPAVPFA [S12G]             2.31
59  AFLELPHGSGGSGYPDAPPAVPFA [A16D]             2.09
60  AFLELPHGSGGSGKPAAPPAVPFA [Y14K]             2.78
61  AFLELPHGSGGSGYPAQPPAVPFA [A17Q]             2.54
62  AFLELPHGSGGSGYPAAPWAVPFA [P19W]             2.83
63  AFLELPHGSGGSGYPWAPPAVPFA [A16W]             1.94
64  AFLELPHGSGGKGYPAAPPAVPFA [S12K]             2.17
65  AFLELPHGSGGSGYPAAPPAVWFA [P22W]             2.25
66  AFLELPHGSGQSGYPAAPPAVPFA [G11Q]              2.2
67  AFLELPHGSGGSGYPAAPPAVPFK [A24K]             2.55
68  AFLELPHGSGGRGYPAAPPAVPFA [S12R]             2.27
69  AFLELPHGSGGSGYPATPPAVPFA [A17T]             2.58
70  AFLELPHGSGGLGYPAAPPAVPFA [S12L]             2.18
